- Test system: KM12
- experiment summary: NCI tumour cell line growth inhibition, 48 h
Activity calls are given as the source filed them. Rule as the data show it: active = GI50 up to about 1.1 µM and inactive = higher.
Reported GI50 values for a set of molecules

Field: example entries. Status: answers known.
O=c1c2ccccc2c(=O)c2c1cc(Cl)c1[nH]c3c([nH]c12)c(Cl)cc1c(=O)c2ccccc2c(=O)c13    > 100 µM (inactive)
CCc1ncnc2cc(OCC3CO3)c(OC)cc12 (stereo not given)    5.58 µM (inactive)
COc1ccccc1N1C(=O)/C(=C\c2ccccc2)SC1c1cc(OC)c(OC)c(OC)c1 (stereo not given)    32.1 µM (inactive)
CN(O)C(=O)c1cccc(Cl)c1    > 100 µM (inactive)
CCCCCCCCCCCCCC(=O)N(CCCCCCCCC)CC(O)C(O)C(OC1OC(CO)C(O)C(O)C1O)C(O)CO (stereo not given)    17.7 µM (inactive)
Oc1c(Cl)c(Cl)c(O)c(-c2cnc(-c3ncc(-c4c(O)c(Cl)c(Cl)c(O)c4Cl)s3)s2)c1Cl    29.2 µM (inactive)

Q. Endpoint output: GI50 of CN(C)CCCNc1ccc2ncn3c4ccccc4c(=O)c1c23 . Value?
A. 5.87 µM (inactive)

Q. Endpoint output: GI50 of COC(=O)c1ccc(-n2c(C)nc(=O)c(-c3ccccc3)c2C)cc1 . Value?
A. > 100 µM (inactive)

Q. Endpoint output: GI50 of O=C(/C=C/c1ccc(/C=C/C(=O)c2ccc(O)cc2)cc1)c1ccc(O)cc1 . Value?
A. > 100 µM (inactive)

Q. Endpoint output: GI50 of CC(C)(C)[C@H]1CCC2(OCCO2)[C@](O)(CCCO)C1 . Value?
A. > 100 µM (inactive)

Entry source: ChEMBL document CHEMBL1201862
